Target: T1, ApoE4 amino acids 1-164, expressed on yeast (human, UniProt P02649 19-182)
T1 construct: with myc tag, on yeast cells; range counts on the mature protein; also called up to helix 4; not shown: myc tag and yeast surface-display partner
T1 chain: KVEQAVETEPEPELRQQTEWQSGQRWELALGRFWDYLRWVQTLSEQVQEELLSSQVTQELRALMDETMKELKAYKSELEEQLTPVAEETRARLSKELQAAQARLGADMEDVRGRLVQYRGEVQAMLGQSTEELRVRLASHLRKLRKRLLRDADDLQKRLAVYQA
Test: yeast display of myc-tagged ApoE4 fragment, antibody staining
readout: binding result

>>> result("HJ155 (antibody, V domains shown, murine monoclonal antibody from hybridoma; also called HJ155B (biotinylated)) VH: RVQLQQSGPGLVKPGASVKISCKASGYTFTDYYINWVRQRPGQGLEWIGWIFPGSGITYYNEKFKGKATLTVDRSSSTAYMLLSSLTSEDSAVYFCARYAYGSPFAYWGQGTLVTVSA VL: DVLMTQTPLSLPVSLGDQASISCRSSQSIVHSNGNTYLEWYLQKPGQSPKLLIYKVSNRFSGVPDRFSGSGSGTDFTLKISRVEAEDLGVYYCFQGSHVPYTFGGGTKLEIKR")
"binds"
>>> result("HJ154 (antibody, V domains shown, murine monoclonal antibody from hybridoma; also called HJ154B (biotinylated)) VH: QVQLQQPGTEFVMSGASVMLSCKASGYIFTNYWLHWVKQRPGHGLEWIGEIDPSDSYSICNDNFKGKSTLTVDKSSSTAYMQLSSLTSEDSAVYYCAGSLGRVGLAYWGQGTLVTVST VL: QIVLTQSPAIMSASPGEKVTMSCSASSSVSNMYWYQQKPGSSPKSWIYRTSNLASGVPARFSGSGSGTSYSLTISNMEAEDAATYYCQHYQNYPLTFGAGTKLELKR")
"binds"
>>> result("HJ156 (antibody, V domains shown, murine monoclonal antibody from hybridoma; also called HJ156B (biotinylated)) VH: QVQLQQSGPELVKPGASVKISCKASGYIFTDYYINWVKRRPGQGLEWIGWIFPGSGVSYYNEQFKGKATLTVDKPSNTAYIFLSRLTSEDSAVYFCARYYSSSPFAYWGQGTLVTVSA VL: DVLMTQTPLSLPVSLGDQASISCRSSQNIIHSNGNTYLEWFLQRPGQSPELLIYKVSNRFSGVPDRFSGSGSGTDFTLKISRVEAEDLGVYYCFQGSHVPYTFGGGTKLEIKR")
"binds"

The measured values listed here are drawn from patent US20250145697A1.
